Ref: PubChem BioAssay AID588488

measured_on: UniProtKB Q9UM07
Sequence (Q9UM07 whole entry, looked up): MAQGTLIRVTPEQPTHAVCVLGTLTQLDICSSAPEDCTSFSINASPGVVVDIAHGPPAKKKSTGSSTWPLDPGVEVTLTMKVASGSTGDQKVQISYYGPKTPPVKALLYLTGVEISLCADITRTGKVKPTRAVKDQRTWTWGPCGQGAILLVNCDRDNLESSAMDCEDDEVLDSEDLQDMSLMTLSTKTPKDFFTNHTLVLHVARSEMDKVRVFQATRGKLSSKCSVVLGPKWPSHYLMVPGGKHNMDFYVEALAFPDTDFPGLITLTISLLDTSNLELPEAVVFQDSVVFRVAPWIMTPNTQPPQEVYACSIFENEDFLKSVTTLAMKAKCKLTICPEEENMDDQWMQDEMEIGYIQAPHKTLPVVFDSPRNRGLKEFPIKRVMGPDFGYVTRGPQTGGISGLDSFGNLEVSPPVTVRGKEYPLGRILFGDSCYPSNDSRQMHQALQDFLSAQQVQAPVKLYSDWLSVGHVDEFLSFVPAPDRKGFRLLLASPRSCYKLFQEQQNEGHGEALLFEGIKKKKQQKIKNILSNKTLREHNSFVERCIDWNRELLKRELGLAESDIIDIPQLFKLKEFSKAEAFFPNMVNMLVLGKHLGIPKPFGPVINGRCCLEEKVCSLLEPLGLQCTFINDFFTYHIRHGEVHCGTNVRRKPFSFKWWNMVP
procedure_summary: single-point PAD isozyme enzyme inhibition – biochemical, colorimetric, BAEE substrate, HTS hits, selectivity assay for PAD4 inhibitor project, late-stage follow-up (AID 588488)
measurement_context: Recombinant PAD1-4, BAEE citrulline colorimetric absorbance; PAD4; at 10 µM; active compounds read high
Criterion: inhibition meeting or surpassing 10%. Met: met. Not met: not met.

Prompt: Threshold query (inhibition >= 10%) on Cc1nn(-c2cccc(Cl)c2)c2c1C(c1cccnc1)C(C#N)=C(N)O2 (stereo not given)
Response: not met

Prompt: Threshold query (inhibition >= 10%) on "CCN(CC)c1cccc(OC2=NS(=O)(=O)c3ccccc32)c1"
Response: met

Prompt: Threshold query (inhibition >= 10%) on "Cc1cc(-c2nnc(SCC(=O)Nc3ccc(F)c(F)c3)n2N)n[nH]1"
Response: not met

Prompt: Threshold query (inhibition >= 10%) on COc1ccc(C2C(C#N)=C(N)N(N(C)C)C3=C2C(=O)CCC3)cc1 (stereo not given)
Response: met

Prompt: Threshold query (inhibition >= 10%) on "Cc1ccc(CNC(=O)c2ccc(C)c(S(=O)(=O)N3CCCCC3)c2)cc1"
Response: met
